# System: RHO transcripts
# Procedure Summary: qPCR of RHO transcripts in NIH3T3 (RHO^P23H/GFP) and NIH3T3 (RHO^WT/GFP) cells
# Assay type: cell-based
# Assay Conditions: 10 μM, 24 h, vs DMSO
# Method: NIH3T3 (RHO^WT/GFP) and NIH3T3 (RHO^P23H/GFP) cells were seeded in the 24-well plates at a density of 2.5×10^5 cells/well and cultured at 37° C. with 5% CO2 for overnight. Cells were then incubated with the culture medium containing compounds for 24 h. After aspirating the medium, cells were collected and lysed in 300 μL/well of TRIzol (ThermoFisher, 15596026, Waltham, MA USA) for 5 min. […] The yield and purity of RNA were assessed by a NanoDrop spectrometer. […]
Endpoint Name: Rho mRNA level (qPCR)

# Molecule, Target Of Assay, Reported Result
records = [
    ("CC(=O)OC(CC(=O)O)C[N+](C)(C)C (stereo not drawn) [CL-002]", "RHO transcripts", "Down"),
    ("NCC(=O)COP(=O)(O)O [CL-005]", "RHO transcripts", "Up"),
    ("CCC(C)(O)C(O)C(=O)O (stereo not drawn) [CL-008]", "RHO transcripts", "Down"),
]
